target: P. falciparum apicoplast DNA polymerase (Pf-apPOL) (Plasmodium falciparum); assay: Fluorescence-based high-throughput DNA polymerase assay (molecular beacon), primary screen and dose-response; type: biochemical; conditions: DRC-2; 40'; concentration 40;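 note: compound concentration given in µM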
Sequence (Q8ILY1 entry or part of it): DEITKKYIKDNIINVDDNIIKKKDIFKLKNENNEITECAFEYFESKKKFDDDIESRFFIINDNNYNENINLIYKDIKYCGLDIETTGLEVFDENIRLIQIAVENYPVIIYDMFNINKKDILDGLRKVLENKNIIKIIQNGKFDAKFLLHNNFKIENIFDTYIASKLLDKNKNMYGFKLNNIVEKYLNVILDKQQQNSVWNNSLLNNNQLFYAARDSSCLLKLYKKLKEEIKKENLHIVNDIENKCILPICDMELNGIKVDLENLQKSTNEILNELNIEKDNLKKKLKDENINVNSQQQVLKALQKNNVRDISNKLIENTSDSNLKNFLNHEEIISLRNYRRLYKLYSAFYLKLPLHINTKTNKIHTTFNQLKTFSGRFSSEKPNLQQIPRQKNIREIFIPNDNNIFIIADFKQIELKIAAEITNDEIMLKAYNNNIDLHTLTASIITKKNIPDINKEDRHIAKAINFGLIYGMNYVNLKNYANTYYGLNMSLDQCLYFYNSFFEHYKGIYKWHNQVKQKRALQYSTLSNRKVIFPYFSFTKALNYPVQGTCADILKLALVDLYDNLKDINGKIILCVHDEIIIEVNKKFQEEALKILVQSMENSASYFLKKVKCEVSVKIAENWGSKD
% inhibition Apol 40' by entry:
Note: a bare number is incomplete; add the unit.

Example molecules with recorded % inhibition Apol 40':
INSERT INTO assay_data (molecule, observed_result) VALUES
  ('O=[N+]([O-])c1ccc(/C=C/c2ccc3ccccc3n2)o1 [Molecule 21, O=N(=O)c1ccc(o1)/C=C/c1ccc2c(n1)cccc2]', '54%'),
  ('O=C(Nc1c2c(nn1-c1ccc(Oc3ccccc3)cc1)CSC2)c1ccco1 [KU0055927]', '69%'),
  ('CCN1C(=O)C(=Cc2cccc(OC)c2O)SC1=S [Molecule 78, CCN1C(=S)SC(=Cc2cccc(c2O)OC)C1=O]', '39%'),
  ('CC(=O)Nc1cc(C(=O)NC(C)C)c2ccc(C)nc2c1 [KU0206312]', '65%'),
  ('O=C(O)c1cc([N+](=O)[O-])c(N2CCN(c3cccc(C(F)(F)F)c3)CC2)c([N+](=O)[O-])c1 [KU0076747]', '63%'),
  ('O=c1cc(-c2ccccc2)oc2c(O)c(O)ccc12 [Molecule 84, Oc1ccc2c(c1O)oc(cc2=O)c1ccccc1]', '32%'),
  ('COc1ccc(NC(=O)Cn2ccc3c(=O)[nH]ccc32)cc1 [Molecule 13, COc1ccc(cc1)NC(=O)Cn1ccc2c1cc[nH]c2=O]', '67%');

Here's the next entry for you.
Prompt line: Form entry - test system: P. falciparum apicoplast DNA polymerase (Pf-apPOL) (Plasmodium falciparum); read-out: % inhibition Apol 40'; molecule: CC(C)(C)OC(=O)COc1ccc2cc(-c3ccccc3)c(=O)oc2c1 [Molecule 81]
Response line: 33%
